Study target: UniProt:Q12809
Procedure details: Test 4: hERG inhibition (QPatch HT, CHO cells stably expressing hERG)
Reported conditions: hERG IC50 divided by RS4;11 proliferation IC50
Measured attribute: hERG/RS4; 11
Give the figure by itself; no unit, no explanation.

Prompt: Note hERG/RS4; 11 for the compound shown: CC(C)N(C(=O)c1cc(F)ccc1Oc1cncnc1N1CCC2(CCN(C(=O)[C@H]3N[C@H]4CC[C@@H]3CC4)C2)C1)C(C)C (some centres unmarked) [Example 2]
Response: 13.6

Prompt: Note hERG/RS4; 11 for the compound shown: C=C1C[C@H]2CC[C@@H]1N[C@@H]2C(=O)N1CCC2(CC1)CN(c1ncncc1Oc1ccc(F)cc1C(=O)N(C(C)C)C(C)C)C2 [Example 8]
Response: 137

###

Consider the following compounds; for each one, report its IC50.
Study target: hERG (human Ether-a-go-go Related Gene) (Homo sapiens (Human))
Procedure details: Test 4: hERG inhibition (QPatch HT, CHO cells stably expressing hERG)

Prompt: Note IC50 for the compound shown: C=C1C[C@H]2CC[C@@H]1N[C@@H]2C(=O)N1CC2(C1)CN(c1ncncc1Oc1ccc(F)cc1C(=O)N(C(C)C)C(C)C)C2
Response: > 10 µM

Prompt: Note IC50 for the compound shown: CC(C)N(C(=O)c1cc(F)ccc1Oc1cncnc1N1CC2(CCN(C(=O)[C@H]3N[C@H]4CC[C@@H]3[C@H](F)[C@@H]4CC3CC3)CC2)C1)C(C)C
Response: 6.9 µM

Prompt: Note IC50 for the compound shown: CC(C)N(C(=O)c1cc(F)ccc1Oc1cncnc1N1CC2(CN(C(=O)[C@H]3N[C@@H]4CC[C@H]3C4)C2)C1)C(C)C
Response: > 100 µM

###

Consider the following compounds; for each one, report its IC50.
Tested on: RS4; 11 cells
Procedure details: Test 2: inhibition of cell proliferation, RS4;11
Format: cell-based
Reported conditions: Homo sapiens; RS4;11 cells, 7 days, PrestoBlue cell viability

Prompt: Note IC50 for the compound shown: C=C1C[C@H]2CC[C@@H]1N[C@@H]2C(=O)N1CC2(C1)CN(c1ncncc1Oc1ccc(F)cc1C(=O)N(C(C)C)C(C)C)C2
Response: 80 nM

Prompt: Note IC50 for the compound shown: CC(C)N(C(=O)c1cc(F)ccc1Oc1cncnc1N1CC2(CN(C(=O)[C@H]3N[C@H]4CC[C@@H]3C[C@H]4CC3CC3)C2)C1)C(C)C
Response: 20 nM

Prompt: Note IC50 for the compound shown: CC(C)N(C(=O)c1cc(F)ccc1Oc1cncnc1N1CC2(CCN(C(=O)[C@H]3N[C@H]4CC[C@@H]3C[C@@H]4CC3CC3)CC2)C1)C(C)C
Response: < 10 nM

Prompt: Note IC50 for the compound shown: CC(C)N(C(=O)c1cc(F)ccc1Oc1cncnc1N1CC2(CCN(C(=O)[C@H]3N[C@H]4CC[C@@H]3[C@H](F)[C@@H]4CC3CC3)CC2)C1)C(C)C
Response: < 10 nM

Prompt: Note IC50 for the compound shown: CC(C)N(C(=O)c1cc(F)ccc1Oc1cncnc1N1CC2(CCN(C(=O)[C@H]3N[C@H]4CC[C@@H]3C[C@H]4CC3CC3)CC2)C1)C(C)C
Response: 40 nM

Prompt: Note IC50 for the compound shown: CC(C)N(C(=O)c1cc(F)ccc1Oc1cncnc1N1CC2(CN(C(=O)[C@H]3N[C@H]4CC[C@@H]3[C@@H](F)C4)C2)C1)C(C)C
Response: 20 nM

Prompt: Note IC50 for the compound shown: CC(C)N(C(=O)c1cc(F)ccc1Oc1cncnc1N1CCC2(CCN(C(=O)[C@H]3N[C@H]4CC[C@@H]3CC4)C2)C1)C(C)C (some centres unmarked)
Response: 870 nM

Prompt: Note IC50 for the compound shown: C=C1C[C@@H]2CC[C@H]1[C@@H](C(=O)N1CCC3(CC1)CN(c1ncncc1Oc1ccc(F)cc1C(=O)N(C(C)C)C(C)C)C3)N2
Response: 20 nM

###

Tested on: MOLM-13 cells
Procedure details: Test 2: inhibition of cell proliferation, MOLM-13
Assay type: cell-based
Reported conditions: 7 days, PrestoBlue cell viability
Measured attribute: pIC50
Field pIC50 (float): negative decimal logarithm of the concentration in molar.

Prompt: Note pIC50 for the compound shown: CC(C)N(C(=O)c1cc(F)ccc1Oc1cncnc1N1CC2(CCN(C(=O)[C@H]3N[C@H]4CC[C@@H]3[C@@H](F)[C@H]4CC3CC3)CC2)C1)C(C)C
Response: 7.40

###

Study target: hERG (human Ether-a-go-go Related Gene) (Homo sapiens (Human), UniProt Q12809)
Sequence (Q12809 whole entry): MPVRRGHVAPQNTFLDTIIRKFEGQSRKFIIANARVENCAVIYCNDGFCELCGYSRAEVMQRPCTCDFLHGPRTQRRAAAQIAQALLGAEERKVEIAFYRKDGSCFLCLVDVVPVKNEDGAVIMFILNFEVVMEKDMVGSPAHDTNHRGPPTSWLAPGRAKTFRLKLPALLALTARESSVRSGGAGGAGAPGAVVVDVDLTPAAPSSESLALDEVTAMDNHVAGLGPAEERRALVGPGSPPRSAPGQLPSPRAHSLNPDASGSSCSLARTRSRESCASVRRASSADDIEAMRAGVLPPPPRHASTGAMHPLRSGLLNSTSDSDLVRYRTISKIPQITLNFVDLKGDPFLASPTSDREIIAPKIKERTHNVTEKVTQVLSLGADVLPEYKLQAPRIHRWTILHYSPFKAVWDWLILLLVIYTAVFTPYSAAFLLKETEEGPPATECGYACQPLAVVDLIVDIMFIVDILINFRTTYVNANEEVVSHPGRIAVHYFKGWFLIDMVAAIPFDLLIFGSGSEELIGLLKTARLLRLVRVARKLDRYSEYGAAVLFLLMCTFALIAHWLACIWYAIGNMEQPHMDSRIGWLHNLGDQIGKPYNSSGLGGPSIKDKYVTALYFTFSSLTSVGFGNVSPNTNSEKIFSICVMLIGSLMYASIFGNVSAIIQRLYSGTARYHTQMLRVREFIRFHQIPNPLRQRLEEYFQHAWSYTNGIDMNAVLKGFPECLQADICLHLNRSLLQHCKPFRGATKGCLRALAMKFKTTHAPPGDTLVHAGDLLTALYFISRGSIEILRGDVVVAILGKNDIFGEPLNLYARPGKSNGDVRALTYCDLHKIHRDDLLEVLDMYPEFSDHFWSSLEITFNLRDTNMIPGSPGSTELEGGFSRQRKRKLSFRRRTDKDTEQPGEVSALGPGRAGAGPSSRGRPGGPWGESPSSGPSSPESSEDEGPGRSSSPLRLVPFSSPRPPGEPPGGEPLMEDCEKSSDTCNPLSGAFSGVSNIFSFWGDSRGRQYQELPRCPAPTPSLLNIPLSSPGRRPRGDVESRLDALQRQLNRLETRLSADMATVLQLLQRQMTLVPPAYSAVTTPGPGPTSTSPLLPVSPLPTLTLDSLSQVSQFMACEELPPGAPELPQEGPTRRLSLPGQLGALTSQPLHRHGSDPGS
Procedure details: Test 4: hERG inhibition (QPatch HT, CHO cells stably expressing hERG)
Reported conditions: hERG IC50 divided by RS4;11 proliferation IC50
Consider the following compounds; for each one, report its hERG/RS4; 11.

Prompt: Note hERG/RS4; 11 for the compound shown: CC(C)N(C(=O)c1cc(F)ccc1Oc1cncnc1N1CC2(CN(C(=O)[C@H]3N[C@H]4CC[C@@H]3C[C@H]4CC3CC3)C2)C1)C(C)C [Example 5]
Response: 395

Prompt: Note hERG/RS4; 11 for the compound shown: CC(C)N(C(=O)c1cc(F)ccc1Oc1cncnc1N1CC2(CCN(C(=O)[C@H]3N[C@H]4CC[C@@H]3[C@H](F)[C@@H]4CC3CC3)CC2)C1)C(C)C [Example 19]
Response: >690

Prompt: Note hERG/RS4; 11 for the compound shown: CC(C)N(C(=O)c1cc(F)ccc1Oc1cncnc1N1CC2(CN(C(=O)[C@H]3N[C@@H]4CC[C@H]3C4)C2)C1)C(C)C [Example 15]
Response: >6250

###

Study target: hERG (human Ether-a-go-go Related Gene) (Homo sapiens (Human), UniProt Q12809)
Procedure details: Test 4: hERG inhibition (QPatch HT, CHO cells stably expressing hERG)
Measured attribute: gap between RS4; 11 proliferation IC50 and hERG current IC50

{"columns": ["Entry smiles", "Observed"],
 "data": [
  ["CC(C)N(C(=O)c1cc(F)ccc1Oc1cncnc1N1CC2(CCN(C(=O)[C@H]3N[C@H]4CC[C@@H]3C[C@@H]4CC3CC3)CC2)C1)C(C)C", "more than 100 fold"],
  ["C=C1C[C@H]2CC[C@@H]1N[C@@H]2C(=O)N1CCC2(CC1)CN(c1ncncc1Oc1ccc(F)cc1C(=O)N(C(C)C)C(C)C)C2", "more than 100 fold"],
  ["C=C1C[C@H]2CC[C@@H]1N[C@@H]2C(=O)N1CC2(C1)CN(c1ncncc1Oc1ccc(F)cc1C(=O)N(C(C)C)C(C)C)C2", "more than 100 fold"]
]}

###

Study target: Menin-MLL binding (His-Menin1-615 / MLL1-172-FLAG) (Homo sapiens (Human), UniProt O00255)
Sequence (O00255 other isoform, or with tags, fused parts or gaps): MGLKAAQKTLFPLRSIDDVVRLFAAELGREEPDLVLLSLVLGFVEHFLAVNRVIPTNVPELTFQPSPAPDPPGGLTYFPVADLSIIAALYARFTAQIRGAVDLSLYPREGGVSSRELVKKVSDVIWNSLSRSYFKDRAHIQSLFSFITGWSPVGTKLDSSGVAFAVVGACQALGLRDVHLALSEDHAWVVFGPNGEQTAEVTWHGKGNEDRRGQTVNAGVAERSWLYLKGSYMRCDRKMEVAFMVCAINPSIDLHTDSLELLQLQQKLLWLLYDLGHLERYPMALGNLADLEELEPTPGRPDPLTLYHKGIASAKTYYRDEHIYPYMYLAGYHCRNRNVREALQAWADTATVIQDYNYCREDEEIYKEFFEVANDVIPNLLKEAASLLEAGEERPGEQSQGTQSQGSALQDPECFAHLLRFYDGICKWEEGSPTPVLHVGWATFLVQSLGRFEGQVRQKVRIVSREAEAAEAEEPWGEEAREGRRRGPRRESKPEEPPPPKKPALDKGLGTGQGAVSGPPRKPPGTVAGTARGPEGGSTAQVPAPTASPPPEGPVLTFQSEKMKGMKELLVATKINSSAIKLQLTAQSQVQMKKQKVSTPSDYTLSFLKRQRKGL
Procedure details: Test 1: inhibition of the Menin-MLL binding (HTRF)
Reported conditions: statement in words on the table of Test 1
Measured attribute: Menin-MLL binding inhibition activity

Answered cases to consult:
{"columns": ["Entry smiles", "Study target", "Menin-MLL binding inhibition activity"],
 "data": [
  ["CC(C)N(C(=O)c1cc(F)ccc1Oc1cncnc1N1CC2(CCN(C(=O)[C@H]3N[C@H]4CC[C@@H]3C[C@H]4CC3CC3)CC2)C1)C(C)C", "Menin-MLL binding (His-Menin1-615 / MLL1-172-FLAG) (Homo sapiens (Human), UniProt O00255)", "potent"],
  ["CC(C)N(C(=O)c1cc(F)ccc1Oc1cncnc1N1CC2(CN(C(=O)[C@H]3N[C@H]4CC[C@@H]3C[C@@H]4CC3CC3)C2)C1)C(C)C", "Menin-MLL binding (His-Menin1-615 / MLL1-172-FLAG) (Homo sapiens (Human), UniProt O00255)", "particularly potent"],
  ["CC(C)N(C(=O)c1cc(F)ccc1Oc1cncnc1N1CC2(CN(C(=O)[C@H]3N[C@H]4CC[C@@H]3C[C@H]4CC3CC3)C2)C1)C(C)C", "Menin-MLL binding (His-Menin1-615 / MLL1-172-FLAG) (Homo sapiens (Human), UniProt O00255)", "potent"],
  ["CC(C)N(C(=O)c1cc(F)ccc1Oc1cncnc1N1CC2(CN(C(=O)[C@H]3N[C@H]4CC[C@@H]3[C@@H](F)C4)C2)C1)C(C)C", "Menin-MLL binding (His-Menin1-615 / MLL1-172-FLAG) (Homo sapiens (Human), UniProt O00255)", "particularly potent"]
]}

Prompt: Fetch value of Menin-MLL binding inhibition activity on Menin-MLL binding (His-Menin1-615 / MLL1-172-FLAG) (Homo sapiens (Human), UniProt O00255) for CC(C)N(C(=O)c1cc(F)ccc1Oc1cncnc1N1CC2(CCN(C(=O)[C@H]3N[C@H]4CC[C@@H]3C[C@@H]4CC3CC3)CC2)C1)C(C)C .
Response: potent

###

System: MEIS1
Procedure details: Test 3: inhibition of mRNA transcription, MEIS1 in MV4;11 cells
Assay type: cell-based
Reported conditions: MV4;11 cells, 1 μM, 20 to 24 hours, relative to GAPDH
Consider the following molecules; for each one, report its mRNA at 1 μM (% control) MEIS1.
Your answer should be a plain number; it is taken to be in % control.

Prompt: Note mRNA at 1 μM (% control) MEIS1 for the molecule shown: CC(C)N(C(=O)c1cc(F)ccc1Oc1cncnc1N1CC2(CN(C(=O)[C@H]3N[C@H]4CC[C@@H]3C[C@H]4CC3CC3)C2)C1)C(C)C [Example 5]
Response: 15.5

Prompt: Note mRNA at 1 μM (% control) MEIS1 for the molecule shown: CC(C)N(C(=O)c1cc(F)ccc1Oc1cncnc1N1CC2(CN(C(=O)[C@H]3N[C@H]4CC[C@@H]3[C@@H](F)C4)C2)C1)C(C)C [Example 10]
Response: 13.3

Prompt: Note mRNA at 1 μM (% control) MEIS1 for the molecule shown: C=C1C[C@H]2CC[C@@H]1N[C@@H]2C(=O)N1CCC2(CC1)CN(c1ncncc1Oc1ccc(F)cc1C(=O)N(C(C)C)C(C)C)C2 [Example 8]
Response: 17.1
